Data origin, for the record: patent US20260151494A1

Tested on: T1, human CD71 extracellular domain (human, UniProt P02786 89-760)
T1 construct: also called hCD71; human CD71-ECD
T1 sequence (P02786 89-760): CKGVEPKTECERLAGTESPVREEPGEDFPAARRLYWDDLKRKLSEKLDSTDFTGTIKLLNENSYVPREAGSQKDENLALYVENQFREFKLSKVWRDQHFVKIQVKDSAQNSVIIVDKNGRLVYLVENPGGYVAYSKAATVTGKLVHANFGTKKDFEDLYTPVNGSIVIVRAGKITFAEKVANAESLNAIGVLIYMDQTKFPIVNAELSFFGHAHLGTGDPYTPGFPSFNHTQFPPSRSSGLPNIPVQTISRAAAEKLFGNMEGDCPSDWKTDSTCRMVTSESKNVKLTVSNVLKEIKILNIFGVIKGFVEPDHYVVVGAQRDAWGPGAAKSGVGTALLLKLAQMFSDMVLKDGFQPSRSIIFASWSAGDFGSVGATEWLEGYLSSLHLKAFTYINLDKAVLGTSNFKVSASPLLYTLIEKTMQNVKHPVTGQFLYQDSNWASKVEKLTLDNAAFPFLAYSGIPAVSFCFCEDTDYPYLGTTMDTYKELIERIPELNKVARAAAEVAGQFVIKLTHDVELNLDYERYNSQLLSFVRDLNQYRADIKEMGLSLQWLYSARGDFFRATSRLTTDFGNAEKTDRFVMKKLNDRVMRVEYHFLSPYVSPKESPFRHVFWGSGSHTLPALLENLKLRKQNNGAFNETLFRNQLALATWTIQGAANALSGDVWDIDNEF
Method: primary ELISA of colonies, luminescence; further: test concentration or dose not given here
Measured quantity: hCD71, RLU (RLU)
Give the number; RLU is assumed, so skip it.

Before answering, review these 5 worked examples.
binder="CD71-binding FN3 domain of SEQ ID NO: 118 (designed binder, Screen 1 hit, tested from colonies in the primary ELISA; not shown: C-terminal poly-histidine tag added to each FN3 domain) MLPAPKNLVVSRVTEDSARLSWTAPDAAFDSFYIAYAEPRPDGEAITLWVPGSERSYDLTGLKPGTEYSVTIHGVKGGLLSSPLSAIFTT" measured_quantity="hCD71, RLU" observed=641000
binder="CD71-binding FN3 domain of SEQ ID NO: 105 (designed binder, Screen 1 hit, tested from colonies in the primary ELISA; not shown: C-terminal poly-histidine tag added to each FN3 domain) MLPAPKNLVVSRVTEDSARLSWTAPDAAFDSFHIVYHEPRPSGEAIWLWVPGSERSYDLTGLKPGTEYEVGIVSVKGGDLSVPLSAIFTT" measured_quantity="hCD71, RLU" observed=1.51e+06
binder="CD71-binding FN3 domain of SEQ ID NO: 106 (designed binder, Screen 1 hit, tested from colonies in the primary ELISA; not shown: C-terminal poly-histidine tag added to each FN3 domain) MLPAPKNLVVSRVTEDSARLSWTAPDAVFDSFYIAYAEPRPDGEAIGLYVPGSERSYDLTGLKPGTEYSVLIHGVKGGLLSSPLTASFTT" measured_quantity="hCD71, RLU" observed=3.13e+06
binder="CD71-binding FN3 domain of SEQ ID NO: 114 (designed binder, Screen 1 hit, tested from colonies in the primary ELISA; not shown: C-terminal poly-histidine tag added to each FN3 domain) MLPAPKNLVVSRVTEDSARLSWTAPDAAFDSFHIVYHEPRPSGEAIWLFVPGSERSYDLTGLKPGTEYEVGIVSVKGGDLSVPLSAIFTT" measured_quantity="hCD71, RLU" observed=1.5e+06
binder="CD71-binding FN3 domain of SEQ ID NO: 111 (designed binder, Screen 1 hit, tested from colonies in the primary ELISA; not shown: C-terminal poly-histidine tag added to each FN3 domain) MLPAPKNLVVSRVTEDSARLSWTAPDAAFDSFFIGYLEPQPPGEAISLWVPGSERSYDLTGLKPGTEYNVTIQGVKGGFPSIPLWAIFTT" measured_quantity="hCD71, RLU" observed=3.7e+06

-- ask Identify measured hCD71, RLU corresponding to CD71-binding FN3 domain of SEQ ID NO: 108 (designed binder, Screen 1 hit, tested from colonies in the primary ELISA; not shown: C-terminal poly-histidine tag added to each FN3 domain) MLPAPKNLVVSRVTEDSARLSWTAPDAAFDSFYIAYAEPRPDGEAILLQVPGSERSYDLTGLKPGTEYSVLIHGVKGGLLSSPLVAKFTT
-- reply 3.81e+06

-- ask Identify measured hCD71, RLU corresponding to CD71-binding FN3 domain of SEQ ID NO: 107 (designed binder, Screen 1 hit, tested from colonies in the primary ELISA; not shown: C-terminal poly-histidine tag added to each FN3 domain) MLPAPKNLVVSRVTEDSARLSWTAPDAAFDSFFIGYLEPQPPGEAIGLQVPGSERSYDLTGLKPGTEYNVTIQGVKGGFPSMPLSAIFTT
-- reply 6.03e+06

-- ask Identify measured hCD71, RLU corresponding to CD71-binding FN3 domain of SEQ ID NO: 117 (designed binder, Screen 1 hit, tested from colonies in the primary ELISA; not shown: C-terminal poly-histidine tag added to each FN3 domain) MLPAPKNLVVSRVTEDSARLSWTAPDAAFDSFFIGYLEPQPPGEAIWLLVPGSERSYDLTGLKPGTEYNVTIQGVKGGFPSTPLSAIFTT
-- reply 4.21e+06

-- ask Identify measured hCD71, RLU corresponding to CD71-binding FN3 domain of SEQ ID NO: 101 (designed binder, Screen 1 hit, tested from colonies in the primary ELISA; not shown: C-terminal poly-histidine tag added to each FN3 domain) MLPAPKNLVVSRVTEDSARLSWTAPDAAFDSFGIGYWERRWYGEAIVLTVPGSERSYDLTGLKPGTEYEVTIRGVKGGGYSGPLSAIFTT
-- reply 340000
